Experiment: IC50 ratio evaluated as the IC50 values of testis to that of liver.
Format: functional
Set-up: reference not given here
property-label: IC50 ratio
Form: value (number only, do not type unit).

| test-smiles | IC50 ratio |
| --- | --- |
| CC(C)c1nn(-c2ccccc2)c(-c2ccc(F)cc2)c1/C=C/[C@@H](O)C[C@@H](O)CC(=O)[O-].[Na+] | 0.24 |
| Cc1ccc(-c2ccc(C(C)C)c(OC[C@@H](O)C[C@@H](O)CC(=O)[O-])c2-c2ccc(F)cc2)cc1.[Na+] | 0.08 |
| CC[C@H](C)C(=O)O[C@H]1C[C@H](C)C=C2C=C[C@H](C)[C@H](CC[C@@H]3C[C@@H](O)CC(=O)O3)[C@H]21 | 0.14 |

query: What does the record list as IC50 ratio for CC(C)c1nn(-c2cnccn2)c(-c2ccc(F)cc2)c1/C=C/[C@@H](O)C[C@@H](O)CC(=O)[O-].[Na+] ?
result: 6.4

query: Lookup Cc1cc(-c2ccc(F)cc2)c(/C=C/[C@@H](O)C[C@@H](O)CC(=O)[O-])c(C(C)C)n1.[Na+]
result: 0.24

query: Lookup CC(C)c1nn(-c2ccccn2)c(-c2ccc(F)cc2)c1/C=C/[C@@H](O)C[C@@H](O)CC(=O)[O-].[Na+]
result: 4.8
